- System: 648629-189-R-J1-PDC spheroids with HUVEC/MSC, viability
- PROCEDURE SUMMARY: Anticancer human tumor 648629-189-R-J1-PDC patient-derived bladder carcinoma cell line growth inhibition [PI3K]
- CONDITION SET: second compound 1 µM; first compound 10 µM; active compounds read low
VALUE KIND: viability, T/C (%)
Numbers only, in %.

// worked examples, viability, T/C included
COMPOUND	ASSAYED TARGET	viability, T/C [%]
C#Cc1c(F)ccc2cc(O)cc(-c3ncc4c(N5CC6CCC(C5)N6)nc(OCC56CCCN5CC(F)C6)nc4c3F)c12 (stereo not drawn) + CC(Nc1ccc2c(c1)OCCn1cc(N3C(=O)OCC3C(F)F)nc1-2)C(N)=O	648629-189-R-J1-PDC spheroids with HUVEC/MSC, viability	57.4
CC(C)NCC(C(=O)N1CCN(c2ncnc3c2C(C)CC3O)CC1)c1ccc(Cl)cc1 (stereo not drawn) + CC(Nc1ncnc2nc[nH]c12)c1cc2cccc(Cl)c2c(=O)n1-c1ccccc1	648629-189-R-J1-PDC spheroids with HUVEC/MSC, viability	17.5

Okay, next one:
Checklist item: viability, T/C tested on 648629-189-R-J1-PDC spheroids with HUVEC/MSC, viability, entry Cn1ncc(Cl)c1-c1cc(C(=O)NC(CN)Cc2cccc(F)c2)sc1Cl (stereo not drawn) + CC(Nc1ncnc2nc[nH]c12)c1cc2cccc(Cl)c2c(=O)n1-c1ccccc1 , value?
8.92

----------
Record form. Attribute: viability, T/C. Fill in for each entry.
- System: 648629-189-R-J1-PDC spheroids with HUVEC/MSC, viability
- PROCEDURE SUMMARY: Anticancer human tumor 648629-189-R-J1-PDC cell line growth inhibition [PI3K];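 also: spheroids exposed to agents for seven days before reading; percent of vehicle control luminescence where 100% = DMSO treated spheroids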
- CONDITION SET: second compound 0.0316 µM; first compound 0.1 µM; active compounds read low
Numbers only, in %.

// worked examples, viability, T/C included
MOLECULE	viability, T/C (%)
C=CC(=O)N1CCN(c2nc(=O)n(-c3c(C)ccnc3C(C)C)c3nc(-c4c(O)cccc4F)c(F)cc23)C(C)C1 (centres undefined) + Cc1nc(NC(=O)N2CCCC2C(N)=O)sc1-c1ccnc(C(C)(C)C(F)(F)F)c1	101
CC1(C)CCC(CN2CCN(c3ccc(C(=O)NS(=O)(=O)c4ccc(NCC5CCOCC5)c([N+](=O)[O-])c4)c(Oc4cnc5[nH]ccc5c4)c3)CC2)=C(c2ccc(Cl)cc2)C1 + CC(Nc1ccc2c(c1)OCCn1cc(N3C(=O)OCC3C(F)F)nc1-2)C(N)=O	102
CNC(=O)c1ccc(N2C(=S)N(c3ccc(C#N)c(C(F)(F)F)c3)C(=O)C2(C)C)cc1F + COc1c(OCCCN2CCOCC2)ccc2c3n(c(=NC(=O)c4cnc(N)nc4)nc12)CCN3	92.2
C[C@@H](NC(=O)c1ncnc(N)c1Cl)c1ncc(C(=O)Nc2cc(C(F)(F)F)c(Cl)cn2)s1 + CC(Nc1ccc2c(c1)OCCn1cc(N3C(=O)OCC3C(F)F)nc1-2)C(N)=O	105

List viability, T/C for every entry below, keeping the order given.
1. C[C@@H](NC(=O)c1ncnc(N)c1Cl)c1ncc(C(=O)Nc2cc(C(F)(F)F)c(Cl)cn2)s1 + CC(Nc1ncnc2nc[nH]c12)c1cc2cccc(Cl)c2c(=O)n1-c1ccccc1
2. Cn1ncnc1[C@H]1c2n[nH]c(=O)c3cc(F)cc(c23)N[C@@H]1c1ccc(F)cc1 + CC(Nc1ccc2c(c1)OCCn1cc(N3C(=O)OCC3C(F)F)nc1-2)C(N)=O
3. CC(C)NCC(C(=O)N1CCN(c2ncnc3c2C(C)CC3O)CC1)c1ccc(Cl)cc1 (centres undefined) + CC(Nc1ncnc2nc[nH]c12)c1cc2cccc(Cl)c2c(=O)n1-c1ccccc1
4. CCCS(=O)(=O)Nc1ccc(F)c(C(=O)c2c[nH]c3ncc(-c4ccc(Cl)cc4)cc23)c1F + Cc1nc(NC(=O)N2CCCC2C(N)=O)sc1-c1ccnc(C(C)(C)C(F)(F)F)c1
5. C#Cc1c(F)ccc2cc(O)cc(-c3ncc4c(N5CC6CCC(C5)N6)nc(OCC56CCCN5CC(F)C6)nc4c3F)c12 (centres undefined) + Cc1nc(NC(=O)N2CCCC2C(N)=O)sc1-c1ccnc(C(C)(C)C(F)(F)F)c1
6. CC(C)NCC(C(=O)N1CCN(c2ncnc3c2C(C)CC3O)CC1)c1ccc(Cl)cc1 (centres undefined) + COc1c(OCCCN2CCOCC2)ccc2c3n(c(=NC(=O)c4cnc(N)nc4)nc12)CCN3
7. C#Cc1c(F)ccc2cc(O)cc(-c3ncc4c(N5CC6CCC(C5)N6)nc(OCC56CCCN5CC(F)C6)nc4c3F)c12 (centres undefined) + COc1c(OCCCN2CCOCC2)ccc2c3n(c(=NC(=O)c4cnc(N)nc4)nc12)CCN3
8. Cn1nccc1Nc1nccc(-c2ccn(C(CO)c3ccc(Cl)c(F)c3)c(=O)c2)n1 (centres undefined) + Cc1nc(NC(=O)N2CCCC2C(N)=O)sc1-c1ccnc(C(C)(C)C(F)(F)F)c1

[104, 61.7, 93.6, 104, 103, 77.6, 91.2, 96.2]

List viability, T/C for every entry below, keeping the order given.
1. CC1(C)CCC(Nc2ncc(C(F)(F)F)c(-c3c[nH]c4c(P(C)(C)=O)c(C#N)ccc34)n2)CN1 (centres undefined) + Cc1nc(NC(=O)N2CCCC2C(N)=O)sc1-c1ccnc(C(C)(C)C(F)(F)F)c1
2. CCN1CCN(Cc2ccc(Nc3ncc(F)c(-c4cc(F)c5nc(C)n(C(C)C)c5c4)n3)nc2)CC1 + Cc1nc(NC(=O)N2CCCC2C(N)=O)sc1-c1ccnc(C(C)(C)C(F)(F)F)c1
3. CCCS(=O)(=O)Nc1ccc(F)c(C(=O)c2c[nH]c3ncc(-c4ccc(Cl)cc4)cc23)c1F + CC(Nc1ncnc2nc[nH]c12)c1cc2cccc(Cl)c2c(=O)n1-c1ccccc1
4. C#Cc1c(F)ccc2cc(O)cc(-c3ncc4c(N5CC6CCC(C5)N6)nc(OCC56CCCN5CC(F)C6)nc4c3F)c12 (centres undefined) + CC(Nc1ncnc2nc[nH]c12)c1cc2cccc(Cl)c2c(=O)n1-c1ccccc1
5. CC1(C)CCC(Nc2ncc(C(F)(F)F)c(-c3c[nH]c4c(P(C)(C)=O)c(C#N)ccc34)n2)CN1 (centres undefined) + COc1c(OCCCN2CCOCC2)ccc2c3n(c(=NC(=O)c4cnc(N)nc4)nc12)CCN3

1. 27.6
2. 99.2
3. 95.1
4. 114
5. 23.6

List viability, T/C for every entry below, keeping the order given.
1. Cn1nccc1Nc1nccc(-c2ccn(C(CO)c3ccc(Cl)c(F)c3)c(=O)c2)n1 (centres undefined) + COc1c(OCCCN2CCOCC2)ccc2c3n(c(=NC(=O)c4cnc(N)nc4)nc12)CCN3
2. CC1(C)CCC(Nc2ncc(C(F)(F)F)c(-c3c[nH]c4c(P(C)(C)=O)c(C#N)ccc34)n2)CN1 (centres undefined) + CC(Nc1ccc2c(c1)OCCn1cc(N3C(=O)OCC3C(F)F)nc1-2)C(N)=O

[91.4, 23.4]
